Please provide measured IC50 for the entries that follow.
# Tested on: MCF7
# methodSummary: cells
# reportedConditions: Homo sapiens, MCF7, 48 h
# Description: Antitumor activity against human MCF7 cells assessed as inhibition of cell viability incubated for 48 hrs by MTT assay

Examples with their reported IC50 follow.
{"columns": ["entrySmiles", "IC50"],
 "data": [
  ["N#Cc1sc(Nc2ccccc2)nc1NC(=O)CNNCc1ccccc1", "9.1 µM"],
  ["N#Cc1sc(Nc2ccccc2)nc1N1CSCC1=O", "72.8 µM"]
]}

Field: IC50. Fill in for each record below.
1. Cc1ccc(C(=O)CNNCC(=O)Nc2nc(Nc3ccccc3)sc2C#N)cc1
2. CC(=O)N1CCN(CC(=O)Nc2nc(Nc3ccccc3)sc2C#N)CC1

84.1 µM
61.9 µM

Field: IC50. Fill in for each record below.
1. N#Cc1sc(Nc2ccccc2)nc1NC(=O)CNNC(=O)c1ccc(Cl)cc1
2. CN1CCN(CC(=O)Nc2nc(Nc3ccccc3)sc2C#N)CC1

1. 64.8 µM
2. 52.7 µM

* * *

# Tested on: MCF7
# methodSummary: cells
# reportedConditions: Homo sapiens, MCF7, 48 h
quantityMeasured: pIC50
One number for each entry, as −log10 of the molar value.

Examples with their reported pIC50 follow.
{"columns": ["entrySmiles", "pIC50"],
 "data": [
  ["N#Cc1sc(Nc2ccccc2)nc1NC(=O)CN1CCN(Cc2ccccc2)CC1", 4.34],
  ["N#Cc1sc(Nc2ccccc2)nc1N1C(=N)SCC1=O", 4.65],
  ["N#Cc1sc(Nc2ccccc2)nc1NC(=O)CN1CCN(c2cccc(Cl)c2)CC1", 4.23],
  ["N#Cc1sc(Nc2ccccc2)nc1NC(=O)CNNC(=O)c1ccc([N+](=O)[O-])cc1", 4.36],
  ["N#Cc1sc(Nc2ccccc2)nc1NC(=O)CNNCc1ccc([N+](=O)[O-])cc1", 4.58],
  ["N#Cc1sc(Nc2ccccc2)nc1NC(=O)CNNCC(=O)c1ccccc1", 4.41],
  ["N#Cc1sc(Nc2ccccc2)nc1NC(=O)CN1CCCCC1", 4.78],
  ["N#Cc1sc(Nc2ccccc2)nc1NC(=O)CNNCC(=O)c1cc2ccccc2oc1=O", 4.47]
]}

Field: pIC50. Fill in for each record below.
1. N#Cc1sc(Nc2ccccc2)nc1NC(=O)CN1CCOCC1
2. N#Cc1sc(Nc2ccccc2)nc1Nc1cnc(N)o1

1: 4.48; 2: 4.83

Any idea what pIC50 was measured for N#Cc1sc(Nc2ccccc2)nc1NC(=O)CNNCC(=O)c1ccc(Br)cc1 ? 4.45
